Molecular target: Mitogen-activated protein kinase kinase kinase kinase 1 (Homo sapiens, UniProt Q92918)
Sequence (Q92918 whole entry): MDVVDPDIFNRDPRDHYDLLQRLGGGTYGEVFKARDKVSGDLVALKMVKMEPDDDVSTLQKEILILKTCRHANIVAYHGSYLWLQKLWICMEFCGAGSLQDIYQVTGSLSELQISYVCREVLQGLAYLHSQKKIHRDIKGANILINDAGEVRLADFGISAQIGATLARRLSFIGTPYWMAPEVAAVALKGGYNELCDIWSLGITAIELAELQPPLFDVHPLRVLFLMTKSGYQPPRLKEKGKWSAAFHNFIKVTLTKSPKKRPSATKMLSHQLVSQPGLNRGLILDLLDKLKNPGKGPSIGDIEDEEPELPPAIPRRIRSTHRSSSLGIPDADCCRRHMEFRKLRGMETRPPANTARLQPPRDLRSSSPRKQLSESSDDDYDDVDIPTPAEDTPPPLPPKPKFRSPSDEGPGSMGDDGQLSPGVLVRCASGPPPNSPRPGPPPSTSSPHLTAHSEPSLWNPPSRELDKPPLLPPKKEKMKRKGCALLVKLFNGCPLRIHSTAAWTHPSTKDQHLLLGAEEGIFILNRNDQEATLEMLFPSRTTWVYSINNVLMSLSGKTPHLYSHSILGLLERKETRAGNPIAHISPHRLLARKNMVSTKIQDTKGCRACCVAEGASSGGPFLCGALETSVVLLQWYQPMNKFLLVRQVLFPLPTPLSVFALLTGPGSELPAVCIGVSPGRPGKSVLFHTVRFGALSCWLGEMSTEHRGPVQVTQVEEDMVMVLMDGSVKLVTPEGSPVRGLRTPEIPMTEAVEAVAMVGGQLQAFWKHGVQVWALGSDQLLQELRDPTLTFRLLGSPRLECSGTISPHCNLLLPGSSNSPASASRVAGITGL
Assay: Inhibition of HPK1 (unknown origin) in presence of ATP by ADP-Glo kinase assay
// reported IC50 for each item listed

COc1ccc(-c2c[nH]c3ncnc(Oc4c(F)cc(NC5=NCC(C)(CO)CO5)cc4F)c23)c(F)c1 (configuration not stated) | ≤ 50 nM

For COc1ccc(-c2c[nH]c3ncc(C#N)c(Oc4c(F)cc(NC5=NCC(C)(CO)CO5)cc4F)c23)c(F)c1 (configuration not stated) , write its IC50.
≤ 50 nM

----------
Biological target: Interleukin-2 (Homo sapiens)
Sequence (P60568 whole entry): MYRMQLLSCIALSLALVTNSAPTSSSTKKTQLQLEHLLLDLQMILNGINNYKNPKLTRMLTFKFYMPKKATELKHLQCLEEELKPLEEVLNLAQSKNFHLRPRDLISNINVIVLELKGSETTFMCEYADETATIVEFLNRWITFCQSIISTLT
Assay: Inhibition of IL-2 (unknown origin)
quantity.kind: EC50 (nM)
Respond with the bare value in nM.

Identify EC50 associated with the molecule C[C@H]1CC(=O)c2ccc(Nc3cc4c([C@](C)(N)C5CC5)cnc(OC5CC5)c4cn3)cc2C12CC2
9.4

----------
Target: Mitogen-activated protein kinase kinase kinase kinase 1 (Homo sapiens)
Test: Inhibition of HPK1 (unknown origin) by TR-FRET assay
quantity.kind: IC50 (nM)

Cc1cc(-c2cnc3[nH]cc(-c4ccc(C(=O)N(C)C[C@H](C)O)cc4)c3n2)cc2c1CCN(CCN1CCOCC1)C2 | 11

I = Cc1cc(-c2cnc3[nH]cc(-c4ccc(C(=O)N5CC(N(C)C)C5)cc4)c3c2)cc(C)c1N1CCN(C2CCN(C)CC2)CC1
II = CN(C)C(=O)c1ccc(-c2c[nH]c3ncc(-c4ccc5c(c4)CNCC5)cc23)cc1
Which value of IC50 is smaller, the one for I or the one for II ? Reply with the label of the item you choose.
I
(I: 4.8 nM, II: 107 nM)

A = COCCN(C)C(=O)c1ccc(-c2c[nH]c3ncc(-c4ccc(N5CCN(C)CC5)cc4)nc23)cc1
B = Cc1cc(-c2cnc3[nH]cc(-c4ccc(C(O)C5CCN(C)C5)cc4)c3c2)ccc1N1CCN(C)CC1 (stereo unspecified)
Please state the entry with greater IC50 among A and B . State your choice using its label.
A

----------
Biological target: Mitogen-activated protein kinase kinase kinase kinase 1 (Homo sapiens, UniProt Q92918)
Experiment: Inhibition of HPK1 (unknown origin) in presence of ATP
pIC50: −log10 of the molar value.
quantity.kind: pIC50

C[C@H]1CC(=O)c2ccc(Nc3cc4c([C@](C)(N)C5CC5)cnc(OC5CC5)c4cn3)cc2C12CC2 | 10.30

I = COc1cc2c(cc1Nc1ncc(Cl)c(Nc3ccccc3P(C)(C)=O)n1)CN(C)CCC2
II = CNC(=O)c1ccccc1Nc1nc(Nc2cc3c(cc2OC)CCN(C)C3)ncc1Cl
Select the item whose pIC50 value is smaller, choosing between I and II . Respond using the label that marks the chosen record.
I

I = COc1cc2c(cc1Nc1ncc(C(F)(F)F)c(Nc3ccccc3P(C)(C)=O)n1)CN(C)CC2
II = COc1cc2c(cc1Nc1ncc(Cl)c(Nc3ccccc3P(C)(C)=O)n1)CN(C)C2
Lab note: record which item had the higher pIC50, I or II . Pick one and reply with its label.
I
(I: 8.30, II: 8.00)

----------
Molecular target: Receptor-type tyrosine-protein kinase FLT3 (Homo sapiens, UniProt P36888)
Sequence (P36888 whole entry): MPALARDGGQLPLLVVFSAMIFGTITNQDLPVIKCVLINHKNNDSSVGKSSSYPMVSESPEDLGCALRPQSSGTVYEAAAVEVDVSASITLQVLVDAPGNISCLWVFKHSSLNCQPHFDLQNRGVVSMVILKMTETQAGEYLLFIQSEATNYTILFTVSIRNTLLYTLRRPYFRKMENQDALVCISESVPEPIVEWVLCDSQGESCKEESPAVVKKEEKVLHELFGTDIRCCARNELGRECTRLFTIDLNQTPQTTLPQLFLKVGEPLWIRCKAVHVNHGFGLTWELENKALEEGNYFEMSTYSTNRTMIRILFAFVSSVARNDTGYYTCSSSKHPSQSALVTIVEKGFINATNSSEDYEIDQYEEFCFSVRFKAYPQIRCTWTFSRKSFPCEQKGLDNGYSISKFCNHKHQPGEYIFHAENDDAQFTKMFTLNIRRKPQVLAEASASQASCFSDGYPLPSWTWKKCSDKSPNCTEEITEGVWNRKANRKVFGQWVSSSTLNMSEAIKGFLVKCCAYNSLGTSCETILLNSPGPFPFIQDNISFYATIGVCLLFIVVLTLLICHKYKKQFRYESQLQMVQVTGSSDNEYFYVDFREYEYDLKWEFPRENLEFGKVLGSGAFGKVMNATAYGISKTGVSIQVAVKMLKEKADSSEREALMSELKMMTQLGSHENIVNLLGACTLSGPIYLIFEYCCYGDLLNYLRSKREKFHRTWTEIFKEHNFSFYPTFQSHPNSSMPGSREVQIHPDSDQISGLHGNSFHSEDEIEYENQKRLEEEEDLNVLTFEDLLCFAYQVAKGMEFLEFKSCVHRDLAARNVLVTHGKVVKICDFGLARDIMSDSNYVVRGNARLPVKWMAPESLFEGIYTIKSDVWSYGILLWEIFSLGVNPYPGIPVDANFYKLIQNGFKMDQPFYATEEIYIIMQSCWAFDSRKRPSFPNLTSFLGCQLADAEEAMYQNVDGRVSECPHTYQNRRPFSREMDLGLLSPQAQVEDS
quantity.kind: IC50 (µM)
Only the number, expressed in µM, is required.

Please look at this compound and report its IC50: CN1CCN(c2ccc3nc(-c4c(N)c5sccc5[nH]c4=O)[nH]c3c2)CC1
0.05
